These measurements were taken from patent US20250346644A1.

Molecular target: T1, mIL2-his (mouse, UniProt P04351 21-169)
T1 construct: also called wild-type mouse IL-2 (with a his-tag); not shown: his-tag
T1 sequence (looked up): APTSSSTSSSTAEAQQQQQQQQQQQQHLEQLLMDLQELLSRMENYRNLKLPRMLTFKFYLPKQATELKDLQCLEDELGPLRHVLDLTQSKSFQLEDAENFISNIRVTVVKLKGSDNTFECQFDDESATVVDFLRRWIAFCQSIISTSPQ
Assay: BLI ForteBio, Ab on Protein A sensor
property label: koff (s⁻¹)
Respond with the bare value in s⁻¹.

Input: Tell me the measured koff of hS4B6-H6K7 (antibody, V domains shown, full antibody) VH: QVQLVQSGAEVKKPGATVKISCKVSGDTITAYYLHWVRQAPGQGLEWIGRIDPEDDSTKYAENFKNRVTITADTSTNTAYMELSSLRSEDTAVYYCTTVTFYYSRELRWFAYWGQGTLVTVSS VL: DIQMTQSPSSLSASVGDRVTITCQASQDIGNYLSWYQQKPGKAPKLLIHSATSLADGVPSRFSGSGSGTDFTLTISSLQPEDFATYYCLQHYSTPYTFGGGTKVEIK , please.
Output: 0.00121
